Hey, just so you know, these numbers are from the supplement of paper PMC9112550.

Tested on: Escherichia coli TOP10
Assay: shrunken log2 fold change of peptide-encoding DNA abundance (4.5 h post-induction vs induction); higher = less antimicrobial activity (less host growth inhibition)
Conditions: time post-induction: 4.5 h; library: site-saturation at positions 5, 18, 19, 20
Overview of reported shrunken log2 fold change across a group of sequences:
Number, no unit, nothing else.

Reference set, count: 4
          polymer_sequence               readout_kind  reported_result
0  RRIRARPPRLPRPRPRPKKPPRP  shrunken log2 fold change           0.0922
1  RRIRWRPPRLPRPRPRPVWWPRP  shrunken log2 fold change            0.729
2  RRIRIRPPRLPRPRPRPLKGPRP  shrunken log2 fold change          -0.0404
3  RRIRCRPPRLPRPRPRPTQGPRP  shrunken log2 fold change            0.954

The sequence `RRIRLRPPRLPRPRPRPHEEPRP` , when measured on Escherichia coli TOP10, yielded shrunken log2 fold change of 0.13

The sequence `RRIRPRPPRLPRPRPRPGLQPRP` , when measured on Escherichia coli TOP10, yielded shrunken log2 fold change of -0.0954

The sequence `RRIRGRPPRLPRPRPRPDVSPRP` , when measured on Escherichia coli TOP10, yielded shrunken log2 fold change of 0.163

The sequence `RRIRCRPPRLPRPRPRPNIMPRP` , when measured on Escherichia coli TOP10, yielded shrunken log2 fold change of -0.896

The sequence `RRIRLRPPRLPRPRPRPLENPRP` , when measured on Escherichia coli TOP10, yielded shrunken log2 fold change of 0.0938

The sequence `RRIRPRPPRLPRPRPRPLDMPRP` , when measured on Escherichia coli TOP10, yielded shrunken log2 fold change of -0.142

----------
Overview of reported shrunken log2 fold change across a group of sequences:
Tested on: Escherichia coli TOP10
Test: shrunken log2 fold change of peptide-encoding DNA abundance (4.5 h post-induction vs induction); higher = less antimicrobial activity (less host growth inhibition)
Conditions: time post-induction: 4.5 h; library: site-saturation at positions 5, 18, 19, 20

>>> print(df.to_string())
          polymer_sequence               readout_kind  reported_result
0  RRIRKRPPRLPRPRPRPSRWPRP  shrunken log2 fold change            0.639

The sequence `RRIRERPPRLPRPRPRPREPPRP` , when measured on Escherichia coli TOP10, yielded shrunken log2 fold change of 0.392

The sequence `RRIRLRPPRLPRPRPRPRCRPRP` , when measured on Escherichia coli TOP10, yielded shrunken log2 fold change of 0.434

The sequence `RRIRDRPPRLPRPRPRPIQKPRP` , when measured on Escherichia coli TOP10, yielded shrunken log2 fold change of -0.0081

----------
Overview of reported shrunken log2 fold change across a group of sequences:
Tested on: Escherichia coli TOP10;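 note: peptides expressed intracellularly from a pBAD plasmid library in pooled LB shake-flask culture, induced with 0.3% L-arabinose, DNA abundance read by NGS, three biological replicates, DESeq2 with apeglm shrinkage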
Experiment: shrunken log2 fold change of peptide-encoding DNA abundance (4.5 h post-induction vs induction); higher = less antimicrobial activity (less host growth inhibition)
Conditions: time post-induction: 4.5 h; library: site-saturation at positions 5, 18, 19, 20
Number, no unit, nothing else.

# shrunken log2 fold change of `RRIRWRPPRLPRPRPRPAMLPRP` = 0.365

# shrunken log2 fold change of `RRIRMRPPRLPRPRPRPMKFPRP` = 0.0534

# shrunken log2 fold change of `RRIRWRPPRLPRPRPRPRQWPRP` = 0.0802

# shrunken log2 fold change of `RRIRVRPPRLPRPRPRPVLNPRP` = -0.2

# shrunken log2 fold change of `RRIRERPPRLPRPRPRPSFSPRP` = -0.765

# shrunken log2 fold change of `RRIRARPPRLPRPRPRPRHGPRP` = 0.343

# shrunken log2 fold change of `RRIRSRPPRLPRPRPRPAGMPRP` = 0.223

# shrunken log2 fold change of `RRIRKRPPRLPRPRPRPSKGPRP` = -0.0301
